Origin of the recorded values: patent US12440454B2

Assay: 24 hour pharmacokinetic analysis of serum cannabinoids after oral CBD/CBDA rich hemp paste
Conditions: both, in vivo, po, 1 g of paste
Each entry below carries its reported Cmax.

{"MOLECULE": "C=C(C)[C@@H]1CCC(C)=C[C@H]1c1c(O)cc(CCCCC)c(C(=O)O)c1O [CBDA, cannabidiolic acid]", "Cmax": "1010 ng/mL"}
{"MOLECULE": "CCCCCc1cc(O)c(C/C=C(\\C)CCC=C(C)C)c(O)c1C(=O)O [CBGA, cannabigerolic acid]", "Cmax": "19.7 ng/mL"}
